System: Sporothrix brasiliensis CBS 133006
Experiment: growth inhibition relative to untreated control; higher = more growth inhibition (more antifungal activity), active = 80 or more; extreme values may be limits of the assay
Details: 1 µM; 48 h
Entries and their growth inhibition
VALUE KIND: growth inhibition (%)

OCc1ccc(-c2cncc(Nc3cccc(Cl)c3)c2)cc1; 25.5
O=C(NCc1cc(Cl)cc(Cl)c1)c1c(C(F)(F)F)nc2ccccn12; 21.5
O=C(Nc1ccc(N2CCNCC2)cc1)c1ccn2ncc(-c3cccc(Cl)c3)c2n1; 12
Cc1ccc2[nH]c(C3CCCNC3)c(-c3ccncc3)c2c1 (stereo not given); 19
CCOc1ccccc1NC(C)C(=O)Nc1cc(C(F)(F)F)ccc1N1CCOCC1 (stereo not given); 27.8
O=C(Nc1nnc(-c2ccc(Cl)cc2)o1)c1cccc(C(F)(F)F)c1; 100
c1ccc(Oc2ccc(-c3cc(C4CCOCC4)[nH]n3)cc2)cc1; 3
Cn1ccnc1CNCCS(=O)(=O)c1cccc(Nc2ccc(-c3cccc(F)c3)cn2)c1; 4.25
CN1CCN(S(=O)(=O)c2ccc(-c3ccc4c(Nc5ncc(Cl)cn5)ccnc4c3)cc2)CC1; 13
Cc1ccc(NC(=O)CC2COc3ccccc3O2)cc1Cl (stereo not given); 10
